The values you see were collected from ChEMBL document CHEMBL4043302.

Protocol Description: Intrinsic clearance in human hepatocytes assessed per million cells at 1 uM after 0.5 to 4 hrs by HPLC-HRMS method
Format: ADME, cell-based, Hepatocyte
Experimental Conditions: human hepatocytes, read-out: CLH
Let's look at some molecules and their measured log10 of hepatocyte CLint at 1 µM.
Reported Property: log10 of hepatocyte CLint at 1 µM (log10 of the value in µL/min/1e6 cells)

[
  {
    "Molecule": "Cc1nn2c(-c3c(C)nn(C)c3-c3ccc(C(F)(F)F)cc3)nc(C(F)F)c2c(=O)[nH]1",
    "log10 of hepatocyte CLint at 1 µM": 0.72
  },
  {
    "Molecule": "COc1ccc(Cc2nn3c([C@@H](CCC(O)c4ccccc4)[C@@H](C)O)nc(C)c3c(=O)[nH]2)cc1OC (single isomer, unassigned; diastereomer 1)",
    "log10 of hepatocyte CLint at 1 µM": 1.15
  },
  {
    "Molecule": "Cc1nn2c(-c3c(C)nn(C)c3-c3ccc(Cl)cc3)nc(CO)c2c(=O)[nH]1",
    "log10 of hepatocyte CLint at 1 µM": 1.18
  },
  {
    "Molecule": "COc1cc(Cc2nn3c([C@@H](CCC(O)c4ccccc4)[C@@H](C)O)nc(C)c3c(=O)[nH]2)ccc1O (stereo partly specified)",
    "log10 of hepatocyte CLint at 1 µM": 1.11
  },
  {
    "Molecule": "COc1ccc(Cc2nn3c([C@@H](CCC(=O)c4ccccc4)[C@H](C)O)nc(C)c3c(=O)[nH]2)cc1OC",
    "log10 of hepatocyte CLint at 1 µM": 1.51
  },
  {
    "Molecule": "Cc1nn2c(-c3c(C)nn(C)c3-c3ccc(C(F)(F)F)c(CO)c3)nc(C)c2c(=O)[nH]1",
    "log10 of hepatocyte CLint at 1 µM": 0.59
  },
  {
    "Molecule": "COc1ccc(Cc2nn3c([C@@H](CCC(=O)c4ccccc4)[C@@H](C)O)nc(C)c3c(=O)[nH]2)cc1OC",
    "log10 of hepatocyte CLint at 1 µM": 1.40
  },
  {
    "Molecule": "Cc1nc(-c2cnn3c2CN(CC2CCCC2O)CC3)c2c(=O)[nH]cnn12 (single isomer, unassigned; diastereomer 1)",
    "log10 of hepatocyte CLint at 1 µM": 0.73
  },
  {
    "Molecule": "COc1ccc(-c2[nH]nc(C)c2-c2nc(C)c3c(=O)[nH]c(C)nn23)cn1",
    "log10 of hepatocyte CLint at 1 µM": 0.28
  },
  {
    "Molecule": "Cc1nn2c(-c3c(CO)nn(C)c3-c3ccc(C(F)(F)F)cc3)nc(C(F)F)c2c(=O)[nH]1",
    "log10 of hepatocyte CLint at 1 µM": 0.74
  },
  {
    "Molecule": "COCc1nc(-c2c(C)nn(C)c2-c2ccc(C(F)(F)F)cc2)n2c1c(=O)[nH]c(C)[n+]2[O-]",
    "log10 of hepatocyte CLint at 1 µM": 1.11
  },
  {
    "Molecule": "COc1ccc(Cc2nn3c([C@@H](CCC(O)c4ccccc4)[C@H](C)O)nc(C)c3c(=O)[nH]2)cc1O (stereo partly specified)",
    "log10 of hepatocyte CLint at 1 µM": 0.98
  },
  {
    "Molecule": "Cc1nn2c(-c3c(C=O)nn(C)c3-c3ccc(C(F)(F)F)cn3)nc(C)c2c(=O)[nH]1",
    "log10 of hepatocyte CLint at 1 µM": 1.17
  },
  {
    "Molecule": "Cc1nn2c(-c3c(C)n[nH]c3-c3ccc(C(F)(F)F)cc3)nc(C(F)F)c2c(=O)[nH]1",
    "log10 of hepatocyte CLint at 1 µM": 0.81
  },
  {
    "Molecule": "Cc1nn2c(-c3c(CO)nn(C)c3-c3ccc(Cl)cc3)nc(C)c2c(=O)[nH]1",
    "log10 of hepatocyte CLint at 1 µM": 1.04
  },
  {
    "Molecule": "COc1ccc(Cc2nn3c([C@@H](C(O)CC(O)c4ccccc4)[C@H](C)O)nc(C)c3c(=O)[nH]2)cc1OC (stereo partly specified)",
    "log10 of hepatocyte CLint at 1 µM": 0.63
  }
]

---

Entries with their measured pIC50, system cGMP-dependent 3',5'-cyclic phosphodiesterase (Homo sapiens):
pIC50: −log10 of the molar value.
Reported Property: pIC50

[
  {
    "Compound": "Cc1nc(-c2cnn3c2CN(CC2CCCC2O)CC3)c2c(=O)[nH]cnn12 (single isomer, unassigned; diastereomer 2)",
    "Target System": "cGMP-dependent 3',5'-cyclic phosphodiesterase (Homo sapiens)",
    "Experimental Value": "< 5.70"
  },
  {
    "Compound": "Cc1nn2c(-c3c(C)n[nH]c3-c3ccc(O)nc3)nc(C)c2c(=O)[nH]1",
    "Target System": "cGMP-dependent 3',5'-cyclic phosphodiesterase (Homo sapiens)",
    "Experimental Value": "< 5.70"
  },
  {
    "Compound": "Cc1nn2c(-c3c(C)nn(C)c3-c3ccc(C(F)(F)F)cc3)nc(CO)c2c(=O)[nH]1",
    "Target System": "cGMP-dependent 3',5'-cyclic phosphodiesterase (Homo sapiens)",
    "Experimental Value": 9.52
  }
]

---

Protocol Description: Drug level in rabbit liver microsomes treated with 7-(1,3-Dimethyl-5-(3-methyl-4-(trifluoromethyl)phenyl)-1H-pyrazol-4-yl)-2,5-dimethylimidazo[5,1-f ][1,2,4]triazin-4(3H)-one at 20 uM after 1 hr by UHPLC-UV-HRMS method
Type: ADME, Oryctolagus cuniculus, microsome
Reported Property: Drug metabolism

[
  {
    "Compound Structure String": "Cc1nn2c(-c3c(C(=O)O)nn(C)c3-c3ccc(C(F)(F)F)c(C)c3)nc(C)c2c(=O)[nH]1",
    "Experimental Value": "Metabolite_Detected"
  },
  {
    "Compound Structure String": "Cc1nn2c(-c3c(CO)nn(C)c3-c3ccc(C(F)(F)F)c(C)c3)nc(CO)c2c(=O)[nH]1",
    "Experimental Value": "Metabolite_Detected"
  },
  {
    "Compound Structure String": "Cc1nn2c(-c3c(C)nn(C)c3-c3ccc(C(F)(F)F)c(C)c3)nc(CO)c2c(=O)[nH]1",
    "Experimental Value": "Metabolite_Detected"
  },
  {
    "Compound Structure String": "Cc1nn2c(-c3c(C)nn(C)c3-c3ccc(C(F)(F)F)c(CO)c3)nc(CO)c2c(=O)[nH]1",
    "Experimental Value": "Metabolite_Detected"
  },
  {
    "Compound Structure String": "Cc1nn2c(-c3c(CO)nn(C)c3-c3ccc(C(F)(F)F)c(CO)c3)nc(C)c2c(=O)[nH]1",
    "Experimental Value": "Metabolite_Detected"
  },
  {
    "Compound Structure String": "Cc1nn2c(-c3c(C)nn(C)c3-c3ccc(C(F)(F)F)c(CO)c3)nc(C)c2c(=O)[nH]1",
    "Experimental Value": "Metabolite_Detected"
  }
]

---

Protocol Description: Apparent permeability across RRCK cells after 1.5 hrs
Assay type: ADME, cell-based, Canis lupus familiaris, MDCKII-LE
Experimental Conditions: dog, MDCK
Parameter: Papp at 1.5 h. Scope: all listed entries.

[
  {
    "Compound": "Cc1nn2c(-c3c(CO)nn(C)c3-c3ccc(C(F)(F)F)cn3)nc(CO)c2c(=O)[nH]1",
    "Op": "=",
    "Papp at 1.5 h (×10⁻⁶ cm/s)": 0.54
  },
  {
    "Compound": "Cc1nn2c(-c3c(C)nn(C)c3-c3ccc(C(F)(F)F)cn3)nc(CO)c2c(=O)[nH]1",
    "Op": "=",
    "Papp at 1.5 h (×10⁻⁶ cm/s)": 1.7
  },
  {
    "Compound": "Cc1nc(-c2cnn3c2CN(CC2CCCC2O)CC3)c2c(=O)[nH]cnn12 (single isomer, unassigned; diastereomer 1)",
    "Op": "=",
    "Papp at 1.5 h (×10⁻⁶ cm/s)": 1.8
  },
  {
    "Compound": "Cc1nn2c(-c3c(C)nn(C)c3-c3ccc(C(F)(F)F)c(C)c3)nc(C)c2c(=O)[nH]1",
    "Op": "=",
    "Papp at 1.5 h (×10⁻⁶ cm/s)": 28
  },
  {
    "Compound": "Cc1nn2c(-c3c(C)nn(C)c3-c3ccc(C(F)(F)F)cn3)nc(C)c2c(=O)[nH]1",
    "Op": "=",
    "Papp at 1.5 h (×10⁻⁶ cm/s)": 16
  },
  {
    "Compound": "COc1cc(Cc2nn3c([C@@H](CCC(O)c4ccccc4)[C@@H](C)O)nc(C)c3c(=O)[nH]2)ccc1O (stereo partly specified)",
    "Op": "=",
    "Papp at 1.5 h (×10⁻⁶ cm/s)": 1.2
  },
  {
    "Compound": "Cc1nc(-c2cnn3c2CN(CC2CCCC2)CC3)c2c(=O)[nH]cnn12",
    "Op": "=",
    "Papp at 1.5 h (×10⁻⁶ cm/s)": 24
  },
  {
    "Compound": "COc1ccc(Cc2nn3c([C@@H](CCC(O)c4ccccc4)[C@@H](C)O)nc(C)c3c(=O)[nH]2)cc1OC (single isomer, unassigned; diastereomer 1)",
    "Op": "=",
    "Papp at 1.5 h (×10⁻⁶ cm/s)": 2
  },
  {
    "Compound": "Cc1nn2c(-c3c(C=O)nn(C)c3-c3ccc(C(F)(F)F)cn3)nc(C)c2c(=O)[nH]1",
    "Op": "=",
    "Papp at 1.5 h (×10⁻⁶ cm/s)": 1.2
  },
  {
    "Compound": "COCc1nc(-c2c(C)nn(C)c2-c2ccc(C(F)(F)F)cc2)n2c1c(=O)[nH]c(C)[n+]2[O-]",
    "Op": "=",
    "Papp at 1.5 h (×10⁻⁶ cm/s)": 7.9
  },
  {
    "Compound": "COc1ccc(Cc2nn3c([C@@H](CCC(=O)c4ccccc4)[C@@H](C)O)nc(C)c3c(=O)[nH]2)cc1OC",
    "Op": "=",
    "Papp at 1.5 h (×10⁻⁶ cm/s)": 11
  },
  {
    "Compound": "Cc1nn2c(-c3c(C)nn(C)c3-c3ccc(C(F)(F)F)c(CO)c3)nc(C)c2c(=O)[nH]1",
    "Op": "=",
    "Papp at 1.5 h (×10⁻⁶ cm/s)": 3
  },
  {
    "Compound": "COc1ccc(Cc2nn3c([C@@H](CC(O)C(O)c4ccccc4)[C@@H](C)O)nc(C)c3c(=O)[nH]2)cc1OC (stereo partly specified)",
    "Op": "=",
    "Papp at 1.5 h (×10⁻⁶ cm/s)": 0.56
  },
  {
    "Compound": "Cc1nn2c(-c3c(C)nn(C)c3-c3ccc(C(F)(F)F)c(C)c3)nc(CO)c2c(=O)[nH]1",
    "Op": "=",
    "Papp at 1.5 h (×10⁻⁶ cm/s)": 13
  },
  {
    "Compound": "Cc1nn2c(-c3c(C)nn(C)c3-c3ccc(C(F)(F)F)cc3)nc(C(F)F)c2c(=O)[nH]1",
    "Op": "=",
    "Papp at 1.5 h (×10⁻⁶ cm/s)": 23
  },
  {
    "Compound": "COc1ccc(Cc2nn3c([C@@H](CCC(O)c4ccccc4)[C@H](C)O)nc(C)c3c(=O)[nH]2)cc1OC (stereo in doubt)",
    "Op": "=",
    "Papp at 1.5 h (×10⁻⁶ cm/s)": 2.8
  },
  {
    "Compound": "COc1ccc(Cc2nn3c([C@@H](CCC(O)c4ccccc4)[C@H](C)O)nc(C)c3c(=O)[nH]2)cc1O (stereo partly specified)",
    "Op": "=",
    "Papp at 1.5 h (×10⁻⁶ cm/s)": 1.2
  },
  {
    "Compound": "Cc1nn2c(-c3c(CO)nn(C)c3-c3ccc(C(F)(F)F)c(C)c3)nc(CO)c2c(=O)[nH]1",
    "Op": "=",
    "Papp at 1.5 h (×10⁻⁶ cm/s)": 1.7
  },
  {
    "Compound": "Cc1nn2c(-c3c(C)n[nH]c3-c3ccc(C(F)(F)F)cc3)nc(CO)c2c(=O)[nH]1",
    "Op": "=",
    "Papp at 1.5 h (×10⁻⁶ cm/s)": 0.94
  },
  {
    "Compound": "COCc1nc(-c2c(C)nn(C)c2-c2ccc(C(F)(F)F)cc2)n2nc(C)[nH]c(=O)c12",
    "Op": "=",
    "Papp at 1.5 h (×10⁻⁶ cm/s)": 13
  },
  {
    "Compound": "Cc1nn2c(-c3c(C)nn(C)c3-c3ccc(Cl)cc3)nc(CO)c2c(=O)[nH]1",
    "Op": "=",
    "Papp at 1.5 h (×10⁻⁶ cm/s)": 4.9
  },
  {
    "Compound": "Cc1nn2c(-c3c(C)n[nH]c3-c3ccc(O)nc3)nc(C)c2c(=O)[nH]1",
    "Op": "<",
    "Papp at 1.5 h (×10⁻⁶ cm/s)": 0.5
  },
  {
    "Compound": "Cc1nn2c(-c3c(CO)nn(C)c3-c3ccc(C(F)(F)F)cc3)nc(C(F)F)c2c(=O)[nH]1",
    "Op": "=",
    "Papp at 1.5 h (×10⁻⁶ cm/s)": 6.3
  },
  {
    "Compound": "Cc1nn2c(-c3c(CO)nn(C)c3-c3ccc(C(F)(F)F)cn3)nc(C)c2c(=O)[nH]1",
    "Op": "<",
    "Papp at 1.5 h (×10⁻⁶ cm/s)": 0.5
  },
  {
    "Compound": "COc1ccc(Cc2nn3c([C@@H](CCC(O)c4ccccc4)[C@@H](C)O)nc(C)c3c(=O)[nH]2)cc1O (stereo partly specified)",
    "Op": "=",
    "Papp at 1.5 h (×10⁻⁶ cm/s)": 1.1
  },
  {
    "Compound": "Cc1nn2c(-c3c(CO)nn(C)c3-c3ccc(C(F)(F)F)cc3)nc(CO)c2c(=O)[nH]1",
    "Op": "=",
    "Papp at 1.5 h (×10⁻⁶ cm/s)": 1
  }
]
